Kindly find below Ki information for Prostaglandin E2 receptor EP2 subtype (Homo sapiens, UniProt P43116) taken from the literature.
Metric: Ki (nM)

Compound: CCCCCCC[C@@H]1[C@@H](CCCc2ccc(C(=O)O)s2)[C@H](Cl)C[C@H]1O
Value Prefix: =
Observed Value: 3

Compound: CCCC/C=C/c1ccc(N2CC[C@@H](Cl)[C@@H]2COCc2ccc(C(=O)O)s2)cc1
Value Prefix: =
Observed Value: 3010

Compound: O=C(O)c1ccc(CCC[C@H]2C(C(F)(F)F)C[C@@H](O)[C@@H]2C#Cc2ccccc2)s1 (single isomer, unassigned)
Value Prefix: =
Observed Value: 30

Compound: COc1cc(CC2=C(C(=O)NCc3ccc(C(=O)O)cc3)CCC2)cc(OC)c1
Value Prefix: =
Observed Value: 1120

Compound: COc1cc(CC2CCc3cccc(CCc4ccc(C(=O)O)cc4)c32)cc(OC)c1 (stereo not shown)
Value Prefix: =
Observed Value: 2

Compound: O=C(O)c1ccc(CCCCNC(=O)c2cc(-c3cccc(F)c3)ccc2F)s1
Value Prefix: =
Observed Value: 6880

Compound: CCCCCCC(O)c1ccc(N2C(=O)CC[C@@H]2CCSc2nc(C(=O)O)cs2)cc1 (single isomer, unassigned)
Value Prefix: =
Observed Value: 13

Compound: O=C(O)c1ccc(CC[C@H]2C(=O)CC[C@@H]2/C=C/C(O)Cc2cccc(F)c2)cc1 (single isomer, unassigned)
Value Prefix: =
Observed Value: 3420

Compound: CCCCCC(F)c1ccc(N2C(=O)CC[C@@H]2CCSc2nc(C(=O)O)cs2)cc1 (stereo partly shown)
Value Prefix: =
Observed Value: 9

Compound: COc1cccc(CC2=CCc3cccc(CCc4ccc(C(=O)O)cc4)c32)c1OC
Value Prefix: =
Observed Value: 53

Compound: O=C(O)c1ccc(CNC(=O)c2cc(-c3cc(F)cc(C(F)(F)F)c3)ccc2Oc2ccc(F)cc2)cc1
Value Prefix: <
Observed Value: 100

Compound: CCCc1cc(/C=C/[C@@H]2[C@@H](CCCc3ccc(C(=O)O)s3)[C@H](Cl)C[C@H]2O)ccn1
Value Prefix: =
Observed Value: 2

Compound: O=C(O)c1ccc(CCC[C@@H]2[C@@H](CCCc3cccc(C(F)(F)F)c3)[C@H](O)C[C@H]2Cl)s1
Value Prefix: =
Observed Value: 0.5

Compound: O=C(O)c1ccc(COC[C@H]2CCC(=O)N2c2ccc(-c3nccs3)cc2)s1
Value Prefix: =
Observed Value: 215

Compound: O=C(O)c1ccc(CCC[C@@H]2[C@@H](C#Cc3ccccn3)[C@H](O)C[C@H]2Cl)s1
Value Prefix: =
Observed Value: 11

Compound: O=C(O)c1ccc(CCc2cccc3c2C(Cc2cc(Cl)cc(Cl)c2)=CC3)cc1
Value Prefix: =
Observed Value: 18

Compound: C/C=C/c1cc(Cl)cc(/C=C/[C@@H]2[C@@H](CCCc3ccc(C(=O)O)s3)[C@H](Cl)C[C@H]2O)c1
Value Prefix: =
Observed Value: 1.4

Compound: O=C(O)CCCCCC[C@@H]1[C@@H](CCc2cc(Cl)cc(Cl)c2)[C@H](O)C[C@H]1Cl
Value Prefix: =
Observed Value: 22

Compound: CCCCCC(O)c1ccc(N2C(=O)CC[C@@H]2COCc2csc(C(=O)O)c2)cc1 (stereo partly shown)
Value Prefix: =
Observed Value: 784

Compound: CCCCCC(O)CCN1CCC(=O)N1CCc1ccc(C(=O)O)cc1 (stereo not shown)
Value Prefix: =
Observed Value: 2200

Compound: CCCCC[C@@H](O)c1ccc(N2C(=O)CC[C@@H]2/C=C/Cc2ccc(C(=O)O)s2)cc1 (racemic)
Value Prefix: =
Observed Value: 1380
